Data origin: patent US20230272056A1

target: T1, human LAP-TGFB1 Fc fusion (human); assay: SPR pH 6.0, antigen captured on Fab 54BLH
T1 construct: also called human LAP-TGFβ1-Fc; human LAP-TGFβ-Fc isoform 1
T1 sequence (chain, as listed by the source limits assumed): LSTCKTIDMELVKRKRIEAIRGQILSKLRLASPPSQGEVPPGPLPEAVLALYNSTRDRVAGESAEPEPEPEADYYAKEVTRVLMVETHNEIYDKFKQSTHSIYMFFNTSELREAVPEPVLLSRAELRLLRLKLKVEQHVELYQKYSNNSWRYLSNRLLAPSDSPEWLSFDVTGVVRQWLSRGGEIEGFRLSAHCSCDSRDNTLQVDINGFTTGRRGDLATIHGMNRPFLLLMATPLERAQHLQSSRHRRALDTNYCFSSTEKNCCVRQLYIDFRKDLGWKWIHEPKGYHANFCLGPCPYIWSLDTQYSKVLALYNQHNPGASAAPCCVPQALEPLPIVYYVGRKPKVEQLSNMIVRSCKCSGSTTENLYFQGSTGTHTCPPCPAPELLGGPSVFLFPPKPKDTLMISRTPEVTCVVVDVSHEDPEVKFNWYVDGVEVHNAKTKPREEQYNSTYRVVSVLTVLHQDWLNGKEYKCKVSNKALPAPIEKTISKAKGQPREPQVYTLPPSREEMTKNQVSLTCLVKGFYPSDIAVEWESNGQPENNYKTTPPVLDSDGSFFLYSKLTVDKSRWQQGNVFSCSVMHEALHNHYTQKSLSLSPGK
Recorded Kd by entry
propertyMeasured: Kd (nM)

* 67BLH (Fab, V domains shown, also called 19BLM Fab) VH: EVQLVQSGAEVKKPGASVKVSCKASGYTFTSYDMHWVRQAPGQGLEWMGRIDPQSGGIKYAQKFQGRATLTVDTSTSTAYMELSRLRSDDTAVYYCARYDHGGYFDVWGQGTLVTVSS VL: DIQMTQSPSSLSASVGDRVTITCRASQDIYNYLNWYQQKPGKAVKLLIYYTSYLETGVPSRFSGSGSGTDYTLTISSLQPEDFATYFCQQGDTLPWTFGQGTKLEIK | 18.8
* 07BLM (antibody, human IgG1, kappa, L234A L235A, V domains shown, IgG1 L234A L235A D265S/kappa; also called 70BLH; 43BMD) VH: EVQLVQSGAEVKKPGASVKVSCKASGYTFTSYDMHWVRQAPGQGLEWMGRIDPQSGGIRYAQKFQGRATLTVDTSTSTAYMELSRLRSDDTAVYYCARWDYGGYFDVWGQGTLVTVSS VL: DIQMTQSPSSLSASVGDRVTITCRASQDIYSYLNWYQQKPGKAVKLLIYYTSNLETGVPSRFSGSGSGTDYTLTISSLQPEDFATYFCQQGDTLPWTFGQGTKLEIKR | 0.155
* 66BLH (Fab, V domains shown, also called 18BLM Fab) VH: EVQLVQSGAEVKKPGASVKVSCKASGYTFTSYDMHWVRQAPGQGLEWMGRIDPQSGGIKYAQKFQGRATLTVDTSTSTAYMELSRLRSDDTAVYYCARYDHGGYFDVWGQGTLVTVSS VL: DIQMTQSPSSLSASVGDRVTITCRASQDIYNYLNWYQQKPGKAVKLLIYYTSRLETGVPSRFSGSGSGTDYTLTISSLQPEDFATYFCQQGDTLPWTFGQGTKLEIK | 16.8
